Assay: Inhibition of zinc finger protein C7 (unknown origin) assessed as reduction in transcriptional activity by luciferase reporter gene assay relative to untreated control
Design: species or system Homo sapiens
measure: EC50 (µM)
Provide only the numeric value, understood in µM.

Asked: Query EC50 for `c1ccc2[nH]c(-c3ccnc4ccccc34)nc2c1`
Given back: 35

###

Target: Krueppel-like factor 10 (Homo sapiens, UniProt Q13118)
Sequence (Q13118 whole entry): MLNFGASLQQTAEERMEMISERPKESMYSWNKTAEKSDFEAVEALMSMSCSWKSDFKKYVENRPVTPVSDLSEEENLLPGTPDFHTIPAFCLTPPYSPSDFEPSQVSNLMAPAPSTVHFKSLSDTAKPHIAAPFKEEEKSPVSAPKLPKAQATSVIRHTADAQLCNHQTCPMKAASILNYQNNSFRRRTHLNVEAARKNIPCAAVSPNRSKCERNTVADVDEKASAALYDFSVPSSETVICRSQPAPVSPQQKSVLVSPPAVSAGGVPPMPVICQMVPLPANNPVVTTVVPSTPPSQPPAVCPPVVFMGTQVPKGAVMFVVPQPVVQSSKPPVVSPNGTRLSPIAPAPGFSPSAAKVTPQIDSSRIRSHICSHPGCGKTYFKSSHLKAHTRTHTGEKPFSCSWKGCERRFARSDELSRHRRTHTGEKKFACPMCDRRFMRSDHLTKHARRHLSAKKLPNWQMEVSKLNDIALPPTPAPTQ
Assay: Inhibition of human KLF10 expressed in human HeLa cells assessed as reduction in transcriptional activity after 24 hrs by CACCC-responsive promoter driven TK-luciferase reporter gene assay
measure: pIC50
Keep in mind that pIC50 stands for -log10 of concentration in molar terms.

Asked: Provide pIC50, system Krueppel-like factor 10 (Homo sapiens, UniProt Q13118), entry `COc1ccc(C(=O)COC(=O)c2cc(C)ccc2O)cc1`
Given back: 4.40
